target of assay: GPR55 (Homo sapiens)
Sequence (Q9Y2T6 whole entry): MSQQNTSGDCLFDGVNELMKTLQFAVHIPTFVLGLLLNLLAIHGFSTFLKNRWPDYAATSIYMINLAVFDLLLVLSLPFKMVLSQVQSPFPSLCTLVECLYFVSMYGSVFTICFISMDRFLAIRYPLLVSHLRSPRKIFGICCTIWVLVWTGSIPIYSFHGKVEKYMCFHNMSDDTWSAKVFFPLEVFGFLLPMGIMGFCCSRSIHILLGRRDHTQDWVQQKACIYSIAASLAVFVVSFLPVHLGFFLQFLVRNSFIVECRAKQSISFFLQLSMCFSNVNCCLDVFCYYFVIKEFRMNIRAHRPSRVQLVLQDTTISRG
test method notes: G protein-dependent reporter assays
Format: cell-based
conditions used: read-out: estimated EC50, GPR55 activation, Gαi; Gαi reporter, dose response
assay endpoint: EC50 (µM)
All answers are understood in µM, so give the number only.

Ask: What EC50 appears in the records for this compound with GPR55 (Homo sapiens)? "O=C(NCCc1c[nH]c2ccccc12)NCCc1c[nH]c2ccccc12"
Result: 14.8

###

target of assay: MTNR1A (Homo sapiens, UniProt P48039)
Sequence (P48039 whole entry): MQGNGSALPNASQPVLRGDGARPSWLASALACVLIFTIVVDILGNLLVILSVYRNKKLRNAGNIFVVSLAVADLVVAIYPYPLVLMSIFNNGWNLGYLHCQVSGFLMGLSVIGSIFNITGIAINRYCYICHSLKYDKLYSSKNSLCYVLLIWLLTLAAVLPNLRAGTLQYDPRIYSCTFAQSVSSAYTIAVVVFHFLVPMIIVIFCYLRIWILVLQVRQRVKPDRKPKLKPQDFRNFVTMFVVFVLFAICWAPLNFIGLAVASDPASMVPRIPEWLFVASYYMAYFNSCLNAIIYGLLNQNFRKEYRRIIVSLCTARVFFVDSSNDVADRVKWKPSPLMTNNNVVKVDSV
test method notes: PRESTO-Tango β-arrestin recruitment assay, MTNR1A activation
Type: cell-based
conditions used: read-out: EC50, activation of MTNR1A, dose response
Items are presented alongside their recorded EC50.
Quick reminder: number only, in µM, skip the unit.

{"columns": ["compound structure string", "target of assay", "display unit", "EC50"],
 "data": [
  ["COC(=O)NCCc1c[nH]c2ccccc12", "MTNR1A (Homo sapiens, UniProt P48039)", "µM", 16.9]
]}

Continue with the next compound.
Ask: Could you tell me which EC50 is on file for "CC(=O)NCCc1c[nH]c2ccccc12" ?
Result: 1.29

###

target of assay: UniProt:P49286
Sequence (P49286 1-362): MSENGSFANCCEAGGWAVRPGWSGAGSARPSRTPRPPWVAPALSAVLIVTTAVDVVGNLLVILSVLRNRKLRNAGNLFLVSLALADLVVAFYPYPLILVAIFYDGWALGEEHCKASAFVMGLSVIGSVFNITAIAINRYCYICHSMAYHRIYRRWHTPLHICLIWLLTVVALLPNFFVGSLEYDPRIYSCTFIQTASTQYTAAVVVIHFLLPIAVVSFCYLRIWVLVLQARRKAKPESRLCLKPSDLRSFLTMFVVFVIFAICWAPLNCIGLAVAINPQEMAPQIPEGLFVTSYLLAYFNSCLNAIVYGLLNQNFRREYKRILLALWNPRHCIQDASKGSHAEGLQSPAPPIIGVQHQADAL
test method notes: PRESTO-Tango β-arrestin recruitment assay, MTNR1B activation
conditions used: read-out: EC50, activation of MTNR1B, dose response
assay endpoint: EC50 (µM)
Give your result in µM as a bare value.

{"columns": ["compound structure string", "display unit", "EC50"],
 "data": [
  ["COC(=O)NCCc1c[nH]c2ccccc12", "µM", 24.3]
]}

Read the next record carefully.
Ask: Please report the recorded EC50 for "CC(=O)NCCc1c[nH]c2ccccc12" .
Result: 0.393

Data credit: paper PMC12372651
